Just for reference, the domain aggregation screens of Martell et al. (2025) is where these values come from.

Assay: soluble fraction after stress (log2 fold change); higher = more stays soluble; pooled small domains, quantitative proteomics
Settings: stress: pH 4

query.sequence | soluble fraction (log2)
HMSGVIVPDIYNKTLAEAVASLEGEGFSTEKKEGYSDTVPKGNVMSQKPEAGTSAERGSTVTITISQGPQ | -0.0347
HMATEPLQPRVEVLGSTLATTNGARIVGVYDMSGREVSATQLSKGVYIVKVTNGSVTATQKVFI | 0.254
HMPEMAIRTLRLRNQRGAAVAAEWSRITASLLELRQVEFVNPVDQLIVLKGPEPWAGVAEELVRQLDV | -1.02
HMPESETIMVDVKGAVQSEGVYELPSTARVNDAIEAAGGFSDQADKKSVNLAQKLSDEAVVYVASQGENV | -0.28
